For each entry below, report its Percent Block value.
# target-desc: influenza A M2 channels (A/Udorn/72, S31N mutant) (Influenza A virus, UniProt P0DOF5, S31N)
# Type: cell-based
# condition-notes: pH 5.3
Lab book: enter the figure in %, no units written.

GET /values?readout=Percent Block&item= CC(=O)[O][Zn]1[O]C(=O)C[N]1C1CCCCCCC1 [CO-IMA-Zn, Zinc cyclooctylaminoacetic acid] 42

# query: Percent Block of entry NC(=O)CN(CC(N)=O)C1CCCCCCC1 [CO-IDAm, Cyclooctylimidodiacetamide] 17

What Percent Block value was documented for this molecule, O=C(O)CN(CC(=O)O)C1CCCCCCC1.[Cu] [CO-IDA-Cu, Copper cyclooctyliminodiacetic acid] ? 26

Recorded Percent Block for O=C(O)CN(CC(=O)O)C1CCCCCCC1.[Zn] [CO-IDA-Zn, Zinc cyclooctyliminodiacetic acid] , please? 32

Fill blank: measured Percent Block of the molecule O=C1C[N](C2CCCCCCC2)[Cu]2([O]1)[O]C(=O)C[N]2C1CCCCCCC1 [Bis(CO-IMA)-Cu] is ____. 81

Query (molecule): CC(=O)[O-].CC(=O)[O-].[Cu+2] [Cu(Acetate)2, reference compound] ; field requested: Percent Block 70

---

# target-desc: M2 22-62 peptide, mutant A/Udorn/72 S31N (Influenza A virus, UniProt P0DOF5, S31N)
# Assay type: biochemical
measurement-kind: Mutant Percent Block (%)
State the answer as a number, implicitly in %.

Returns the measured Mutant Percent Block for the input compound. Input: `O=C(O)CN(CC(=O)O)C1CCCCCCC1.[Zn]` 76.29

Give its Mutant Percent Block value. Item: `O=C(O)CN(CC(=O)O)C1CCCCCCC1.[Cu]` 75.75

Requested read-out: Mutant Percent Block. Entry: `O=C1C[N](C2CCCCCCC2)[Cu]2([O]1)[O]C(=O)C[N]2C1CCCCCCC1` 70.38

Quick one: Mutant Percent Block of CC(=O)[O-].CC(=O)[O-].[Cu+2] [Cu(Acetate)2, reference compound] ? 67.23

---

# target-desc: M2 22-62 peptide, mutant A/Udorn/72 S31N (Influenza A virus, UniProt P0DOF5, S31N)
# Format: biochemical
So I've got a bunch of compounds here, and I need their Mutant w/ Compound Proton Flux values.

# query: Mutant w/ Compound Proton Flux of entry O=C(O)CN(CC(=O)O)C1CCCCCCC1.[Cu] [CO-IDA-Cu, Copper cyclooctyliminodiacetic acid] 12.89 H^+/sec/channel

Endpoint output: Mutant w/ Compound Proton Flux of CC(=O)[O-].CC(=O)[O-].[Cu+2] [Cu(Acetate)2, reference compound] . Value? 17.85 H^+/sec/channel

Mutant w/ Compound Proton Flux for O=C(O)CN(CC(=O)O)C1CCCCCCC1.[Zn] [CO-IDA-Zn, Zinc cyclooctyliminodiacetic acid] ? 13.21 H^+/sec/channel

Given O=C1C[N](C2CCCCCCC2)[Cu]2([O]1)[O]C(=O)C[N]2C1CCCCCCC1 [Bis(CO-IMA)-Cu] , state its recorded Mutant w/ Compound Proton Flux. 16.95 H^+/sec/channel

---

# target-desc: influenza A M2 channels (A/Udorn/72, S31N mutant) (Influenza A virus, UniProt P0DOF5, S31N)
# Type: cell-based
measurement-kind: Percent Washout
Reply with the number, then its unit.

Look up Percent Washout: `O=C(O)CN(CC(=O)O)C1CCCCCCC1.[Zn]` 80%

Can you look up the measured Percent Washout of `CC(=O)[O][Zn]1[O]C(=O)C[N]1C1CCCCCCC1` for me? 93%

Could you tell me which Percent Washout is on file for CC(=O)[O-].CC(=O)[O-].[Cu+2] [Cu(Acetate)2, reference compound] ? 4%

Which measured Percent Washout value corresponds to NC(=O)CN(CC(N)=O)C1CCCCCCC1 [CO-IDAm, Cyclooctylimidodiacetamide] ? 100%

Give its Percent Washout value. Item: `O=C(O)CN(CC(=O)O)C1CCCCCCC1.[Cu]` 94%

Quick check: Percent Washout of `O=C1C[N](C2CCCCCCC2)[Cu]2([O]1)[O]C(=O)C[N]2C1CCCCCCC1` ? 11%

---

measurement-kind: EC50 (µM)
Express it in µM; write the number only.

Lab note: need EC50 with M2 (22-62, S31N) (Influenza A virus, UniProt P0DOF5, S31N) for entry [Cl][Cu][Cl] [CuCl2, reference compound] , please look it up. 6.1

---

# target-desc: influenza A M2 channels (A/Udorn/72, S31N mutant) (Influenza A virus, UniProt P0DOF5, S31N)
# condition-notes: pH 5.3
measurement-kind: pEC50
Friendly reminder that pEC50 comes from taking -log10 of the concentration in mol/L.

What value of pEC50 has been reported for the following molecule? CC(=O)[O-].CC(=O)[O-].[Cu+2] [Cu(Acetate)2, reference compound] 4.13
